# Tested on: MALME-3M melanoma
# assay overview: NCI-60 one-dose screen, 48 h (100 = growth as untreated, 0 = no growth, -100 = all killed)
# measurement setup: 10 µM unless noted
Compounds without any hit were thinned out: in the full panel of roughly 83,000, 20% have a hit.
Exercise: for every item that follows, state its recorded growth.
Give bare numbers, in %.

{"chemical structure": "Clc1ccc(C2=Nn3c(nnc3-c3cc(Cl)cc(Cl)c3Cl)SC2)cc1", "growth, %": 44.4}
{"chemical structure": "CCc1ccc(Cc2cnc(NC(=O)c3cc(C)oc3C)s2)cc1", "growth, %": 56}
{"chemical structure": "COCCn1cc(-c2nc(-c3cc4cccnc4n3C)cs2)c2cc(OC)ccc21", "growth, %": 108}
{"chemical structure": "CN(C)CCCN(CCC1CCCCC1)CCC1CCCCC1", "growth, %": -79.4}

// below: growth requested for another compound
Query: Given the compound `Cc1cc(C(=O)Nc2cc(Nc3ncccc3-c3ncnc4nc[nH]c34)ccc2F)cc(C(C)(C)C#N)c1` , what is its reported growth?
Result: 12.9

---

# Tested on: CCRF-CEM leukemia
# assay overview: NCI-60 one-dose screen, 48 h
# measurement setup: 10 µM unless noted
This is part of a sample that, as a whole, favours compounds with a hit. Of some 83,000 tested, about 20% had one in any assay. Calls of active or inactive are those of the source. How the source made its calls: active means growth percent below 10; inactive means the rest.
Give your call using only these classes: active, inactive

Illustrative cases are given below, each with its answer.
{"compound": "CNC(=O)c1cc(Oc2ccc3nc(NC(=O)c4cc(C(F)(F)F)cc(C(F)(F)F)c4)sc3c2)ccn1", "label class": "inactive"}
{"compound": "COC(=O)c1cc(-c2ccc(OC)c(OC)c2)[nH]c1N/N=C/c1c(Cl)cccc1Cl", "label class": "inactive"}
{"compound": "CC1=C([Se]CC(OC(=O)[C@@H](CO)NC(=O)OC(C)(C)C)C(=O)NCCCCCC(=O)OCc2ccccc2)C(=O)c2ccccc2C1=O (stereo partly drawn)", "label class": "active"}

Query: Which result was noted for this compound in the test: `COc1nc2ccccc2cc1/C=C1/C=C(c2ccccc2)NC1=O`
Result: inactive

Query: Next record, please: `CCOC(=O)CCC(=O)P(=O)(O)O`
Result: inactive

Query: Next record, please: `COc1cc(/C=C2\CN(S(=O)(=O)c3ccc(C)cc3)C/C(=C\c3cc(CN4CCCC4)c(O)c(OC)c3)C2=O)cc(CN2CCCC2)c1O`
Result: active

Query: Next record, please: `Cc1nc2c(c(-c3ccccc3)n1)Cc1c(ccc3ccccc13)O2`
Result: inactive

Query: Next record, please: `COC(=O)[C@@H](Cc1c[nH]c2ccccc12)NC(=O)[C@H](Cc1ccccc1)NCc1ccncc1`
Result: inactive

Query: Next record, please: `O=C(/C=C/c1ccco1)Nc1ncc(Cc2ccc(F)cc2)s1`
Result: inactive

Query: Next record, please: `COc1ccc(-c2cc(-c3ccc(Cl)cc3)c(C#N)c(=O)n2CCCCC(=O)NO)cc1`
Result: inactive

Query: Next record, please: `Cc1ccc(C(F)(F)F)cc1N1CCN(C(=O)[C@H]2C[C@H]2c2ccc(C(F)(F)F)nc2)CC1`
Result: inactive

Query: Next record, please: `CC(=O)CC(=O)c1ccccc1.[Cu+2]`
Result: active

Query: Next record, please: `NCCNc1ccc([N+](=O)[O-])cc1`
Result: inactive

Query: Next record, please: Cc1nc2sc(C(=O)Nc3ccccc3)c(N)c2cc1C(O)c1ccccc1 (stereo not drawn)
Result: active

Query: Next record, please: `NCCCCCNc1noc(Cc2c[nH]c3cc(Br)ccc23)n1`
Result: active

Query: Next record, please: `Cc1ccccc1NC(=O)c1sc2nc3c(cc2c1N)CCCC3`
Result: inactive

Query: Next record, please: CCCCC#Cc1c(I)n(C2OC(CO[Si](C)(C)C(C)(C)C)C3OC(C)(C)OC32)c(=O)[nH]c1=O (stereo not drawn)
Result: active

Query: Next record, please: `O=c1c2cccc3c(N4CCOCC4)ccc(c32)c2nc3ccccc3n12`
Result: inactive

Query: Next record, please: O=CN1N=C(c2cccc(Nc3ccncc3)c2)CC1c1ccc2c(c1)OCO2 (stereo not drawn)
Result: inactive

Query: Next record, please: `CC1(C)CC[C@]2(CO)CC[C@]3(C)[C@H](CC[C@@H]4[C@@]5(C)CC[C@H](O)C(C)(C)[C@@H]5CC[C@]43C)[C@H]2[C@H]1O`
Result: inactive

Query: Next record, please: `COc1cc2c(cc1OC)CC[N+](CCC[N+](C)(C)C)=C2`
Result: inactive

Query: Next record, please: `C=CCNc1ccc2c3c(cccc13)C(=O)N(CC=C)C2=O`
Result: inactive

Query: Next record, please: `O=C(NCCN1CCOCC1)c1cncnc1Nc1ccc2c(ccn2Cc2ccccn2)c1`
Result: inactive

Query: Next record, please: Nc1ncnc2c1N=C(c1ccc([N+](=O)[O-])cc1)CC(c1ccc3c(c1)OCO3)N2 (stereo not drawn)
Result: inactive
